The reported numbers originate from the supplement of paper PMC10567573.

B1: TMEM40 (parent)
chain: YGETDFHKQDGKAGLFSQEQYERN

variants of: B1; assay: protein stability index of a GFP-peptide fusion (GPS, HEK-293T) (PSI 1-6); higher = more stable; details: c terminus: a fixed tail appended;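 note: lentivirally expressed fusions sorted by FACS into six bins by GFP to DsRed ratio, PSI derived from sequencing read proportions per bin multiplied by bin number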
This section presents variants with their documented protein stability index values.
property label: protein stability index

[[record]]
seq = "YGETDFHKQDGKAGLFSQEQYNRN [E22N]"
value_observed = 3.85

[[record]]
seq = "YGETDFHKQDGKAGLFSQEQYPRN [E22P]"
value_observed = 3.48

[[record]]
seq = "YGETDFHKQDGKAGLFSQELYERN [Q20L]"
value_observed = 3.42

[[record]]
seq = "YGETDFLKQDGKAGLFSQEQYERN [H7L]"
value_observed = 3.92

[[record]]
seq = "YGETDFHKQDFKAGLFSQEQYERN [G11F]"
value_observed = 3.86

[[record]]
seq = "CGETDFHKQDGKAGLFSQEQYERN [Y1C]"
value_observed = 4.55

[[record]]
seq = "YGETDFHKQDGKAGLFSQEQEERN [Y21E]"
value_observed = 4.35

[[record]]
seq = "YGETDFHKQDGKAGLFSQEQYERY [N24Y]"
value_observed = 3.85

[[record]]
seq = "YGESDFHKQDGKAGLFSQEQYERN [T4S]"
value_observed = 4.06

[[record]]
seq = "YGETDFHKQSGKAGLFSQEQYERN [D10S]"
value_observed = 2.96

[[record]]
seq = "YGEPDFHKQDGKAGLFSQEQYERN [T4P]"
value_observed = 3.62

[[record]]
seq = "YGETDFHKQDGKAGLFSQETYERN [Q20T]"
value_observed = 4.15

[[record]]
seq = "YGETDFHKQLGKAGLFSQEQYERN [D10L]"
value_observed = 2.09

[[record]]
seq = "YGETDSHKQDGKAGLFSQEQYERN [F6S]"
value_observed = 5.6

[[record]]
seq = "YGENDFHKQDGKAGLFSQEQYERN [T4N]"
value_observed = 4.59

[[record]]
seq = "YGETLFHKQDGKAGLFSQEQYERN [D5L]"
value_observed = 3.07

[[record]]
seq = "YGETDFHKQCGKAGLFSQEQYERN [D10C]"
value_observed = 2.46

[[record]]
seq = "YGETDFHKQDGKAGLFSQEQIERN [Y21I]"
value_observed = 4.65

[[record]]
seq = "YGETDFHKQDGKAGLFSQRQYERN [E19R]"
value_observed = 3.49

[[record]]
seq = "YGEIDFHKQDGKAGLFSQEQYERN [T4I]"
value_observed = 4

[[record]]
seq = "YGETDFHKQDGKAGPFSQEQYERN [L15P]"
value_observed = 4.89

[[record]]
seq = "YGETDFHKQDGKAGLDSQEQYERN [F16D]"
value_observed = 5.25

[[record]]
seq = "YGETDFHKQDGKAGLFSIEQYERN [Q18I]"
value_observed = 3.58

[[record]]
seq = "YGETDFHPQDGKAGLFSQEQYERN [K8P]"
value_observed = 4.7

[[record]]
seq = "YGETFFHKQDGKAGLFSQEQYERN [D5F]"
value_observed = 1.49

[[record]]
seq = "YGETDFHKQDGKSGLFSQEQYERN [A13S]"
value_observed = 3.83

[[record]]
seq = "YGETDFHKQRGKAGLFSQEQYERN [D10R]"
value_observed = 3.37

[[record]]
seq = "YGSTDFHKQDGKAGLFSQEQYERN [E3S]"
value_observed = 1.98

[[record]]
seq = "YGETDFHKLDGKAGLFSQEQYERN [Q9L]"
value_observed = 3.49

[[record]]
seq = "YGETDFHKQDGKAGLFSQENYERN [Q20N]"
value_observed = 4.12

[[record]]
seq = "YGETDYHKQDGKAGLFSQEQYERN [F6Y]"
value_observed = 4.41

[[record]]
seq = "YGETDFHKQDGKAGLCSQEQYERN [F16C]"
value_observed = 3.78

[[record]]
seq = "YGETDFHKQDGKAGSFSQEQYERN [L15S]"
value_observed = 5.04

[[record]]
seq = "YGETDFHKQDGKAGLKSQEQYERN [F16K]"
value_observed = 4.38

[[record]]
seq = "YGETDFHKQDGKAGLFSQEQYEIN [R23I]"
value_observed = 4.11

[[record]]
seq = "YGETDFHKQDGKAILFSQEQYERN [G14I]"
value_observed = 3.93

[[record]]
seq = "YGETDFHKQDGKAGLYSQEQYERN [F16Y]"
value_observed = 5.04

